tested on: HeLa Kyoto; experiment: solubility in G1/S (NP-40 vs SDS abundance) (log2 ratio); higher = more soluble; conditions: cell cycle stage: G1/S
Record form. Attribute: solubility in G1/S (log2). Fill in for each entry.
// return a plain number; no unit text

Incoming: Lab note: record solubility in G1/S (log2) of MPSKKKKYNARFPPARIKKIMQTDEEIGKVAAAVPVIISRALELFLESLLKKACQVTQSRNAKTMTTSHLKQCIELEQQFDFLKDLVASVPDMQGDGEDNHMDGDKGARRGRKPGSGGRKNGGMGTKSKDKKLSGTDSEQEDESEDTDTDGEEETSQPPPQASHPSAHFQSPPTPFLPFASTLPLPPAPPGPSAPDEEDEEDYDS [DRAP1] tested on HeLa Kyoto.
Outgoing: 0.748

Incoming: Quote solubility in G1/S (log2) with test system HeLa Kyoto for MEPPMEPSGGEQEPGAVRFLDLPWEDVLLPHVLNRVPLRQLLRLQRVSRAFRSLVQLHLAGLRRFDAAQVGPQIPRAALARLLRDAEGLQELALAPCHEWLSDEDLVPVLARNPQLRSVALGGCGQLSRRALGALAEGCPRLQRLSLAHCDWVDGLALRGLADRCPALEELDLTACRQLKDEAIVYLAQRRGAGLRSLSLAVNANVGDAAVQELARNCPELHHLDLTGCLRVGSDGVRTLAEYCPVLRSLRVRHCHHVAESSLSRLRKRGVDIDVEPPLHQALVLLQDMAGFAPFVNLQV [FBXL15];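 also: HeLa Kyoto cells arrested at G1/S by double thymidine block, proteins quantified by TMT10plex mass spectrometry in mild NP-40 versus SDS extracts, three biological replicates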
Outgoing: 0.189

Incoming: Report value only: solubility in G1/S (log2), HeLa Kyoto, MGKGDPNKPRGKMSSYAFFVQTCREEHKKKHPDSSVNFAEFSKKCSERWKTMSAKEKSKFEDMAKSDKARYDREMKNYVPPKGDKKGKKKDPNAPKRPPSAFFLFCSEHRPKIKSEHPGLSIGDTAKKLGEMWSEQSAKDKQPYEQKAAKLKEKYEKDIAAYRAKGKSEAGKKGPGRPTGSKKKNEPEDEEEEEEEEDEDEEEEDEDEE [HMGB2]
Outgoing: 0.485

The measurements presented in this section are drawn from the supplement of paper PMC5998384.
